From: patent US11066447B2

Tested on: A. fumigatus MMX 5280 ATCC MYA-3626
procedure-summary: MIC/MEC assay (CLSI microdilution)
Format: cell-based, Aspergillus fumigatus
experimental-parameters: Aspergillus fumigatus, 48 h, Without Tween-80, read-out: MEC
Numbered stars: 1 amine (or outer) side, 2 acyl side, 3 side chain; on linkers, the order of the positions; unused ones are H or OH. Square brackets hold non-standard residues; d marks the D form. Peptide text beside a SMILES is read from it. X35 = CN([C@@H](Cc1cccc(-c2ccc(-n3c4ccccc4c4ccccc43)cc2)c1)C(=O)[*:2])[*:1]; X8 = CC(=O)N1CCN(c2ccc(-c3cccc(C[C@@H](C(=O)[*:2])N(C)[*:1])c3)cn2)CC1; X3 = CN1CCN(c2ccc(-c3cccc(C[C@@H](C(=O)[*:2])N(C)[*:1])c3)cn2)CC1; X24 = CN([C@@H](Cc1cccc(-c2ccnc(N3CCOCC3)c2)c1)C(=O)[*:2])[*:1]; X20 = CN([C@@H](Cc1cccc(-c2cnn(C3CCCC3)c2)c1)C(=O)[*:2])[*:1]; X30 = CN([C@@H](Cc1cccc(-c2ccc(Cl)c(Cl)c2)c1)C(=O)[*:2])[*:1]; X18 = CN([C@@H](Cc1cccc(-c2ccc3ccncc3c2)c1)C(=O)[*:2])[*:1]; X22 = CN([C@@H](Cc1cccc(-c2cncc3ccccc23)c1)C(=O)[*:2])[*:1]; X27 = CN([C@@H](Cc1cccc(-c2cccc3ccccc23)c1)C(=O)[*:2])[*:1]; X32 = CN([C@@H](Cc1cccc(-c2cccc(F)c2)c1)C(=O)[*:2])[*:1]; Hmp(2R,3S) = CC[C@H](C)[C@@H](O)C(=O)O; NMeVal(β-OH) = CN[C@H](C(=O)O)C(C)(C)O; NMeV = CN[C@H](C(=O)O)C(C)C
Give measured minimal effective concentration for each item. Keep answers brief.

Give the value of minimal effective concentration reported for the following: CC[C@H](C)[C@@H]1NC(=O)[C@@H]2CCCN2C(=O)[C@H](Cc2cccc(-c3ccc(-n4c5ccccc5c5ccccc54)cc3)c2)N(C)C(=O)[C@H](Cc2ccccc2)NC(=O)[C@H](C(C)C)N(C)C(=O)[C@@H]([C@@H](C)CC)OC(=O)[C@H](C(C)(C)O)N(C)C(=O)[C@H](CC(C)C)NC(=O)[C@H](C(C)C)N(C)C1=O [Compound 8] (cyclo(F[X35]PI[NMeV]L[NMeVal(β-OH)][Hmp(2R,3S)][NMeV]))
> 64 µg/mL

Give the value of minimal effective concentration reported for the following: CC[C@H](C)[C@@H]1NC(=O)[C@@H]2CCCN2C(=O)[C@H](Cc2cccc(-c3ccc(N4CCN(C)CC4)nc3)c2)N(C)C(=O)[C@H](Cc2ccccc2)NC(=O)[C@H](C(C)C)N(C)C(=O)[C@@H]([C@@H](C)CC)OC(=O)[C@H](C(C)(C)O)N(C)C(=O)[C@H](CC(C)C)NC(=O)[C@H](C(C)C)N(C)C1=O [Compound 20] (cyclo(F[X3]PI[NMeV]L[NMeVal(β-OH)][Hmp(2R,3S)][NMeV]))
0.5 µg/mL

Give the value of minimal effective concentration reported for the following: CC[C@H](C)[C@@H]1NC(=O)[C@@H]2CCCN2C(=O)[C@H](Cc2cccc(-c3cncc4ccccc34)c2)N(C)C(=O)[C@H](Cc2ccccc2)NC(=O)[C@H](C(C)C)N(C)C(=O)[C@@H]([C@@H](C)CC)OC(=O)[C@H](C(C)(C)O)N(C)C(=O)[C@H](CC(C)C)NC(=O)[C@H](C(C)C)N(C)C1=O [Compound 29] (cyclo(F[X22]PI[NMeV]L[NMeVal(β-OH)][Hmp(2R,3S)][NMeV]))
> 64 µg/mL

Give the value of minimal effective concentration reported for the following: CC[C@H](C)[C@@H]1NC(=O)[C@@H]2CCCN2C(=O)[C@H](Cc2cccc(-c3ccc(N4CCN(C(C)=O)CC4)nc3)c2)N(C)C(=O)[C@H](Cc2ccccc2)NC(=O)[C@H](C(C)C)N(C)C(=O)[C@@H]([C@@H](C)CC)OC(=O)[C@H](C(C)(C)O)N(C)C(=O)[C@H](CC(C)C)NC(=O)[C@H](C(C)C)N(C)C1=O [Compound 32] (cyclo(F[X8]PI[NMeV]L[NMeVal(β-OH)][Hmp(2R,3S)][NMeV]))
> 64 µg/mL

Give the value of minimal effective concentration reported for the following: CC[C@H](C)[C@@H]1NC(=O)[C@@H]2CCCN2C(=O)[C@H](Cc2cccc(-c3cccc4ccccc34)c2)N(C)C(=O)[C@H](Cc2ccccc2)NC(=O)[C@H](C(C)C)N(C)C(=O)[C@@H]([C@@H](C)CC)OC(=O)[C@H](C(C)(C)O)N(C)C(=O)[C@H](CC(C)C)NC(=O)[C@H](C(C)C)N(C)C1=O [Compound 9] (cyclo(F[X27]PI[NMeV]L[NMeVal(β-OH)][Hmp(2R,3S)][NMeV]))
> 64 µg/mL

Give the value of minimal effective concentration reported for the following: CC[C@H](C)[C@@H]1NC(=O)[C@@H]2CCCN2C(=O)[C@H](Cc2cccc(-c3ccnc(N4CCOCC4)c3)c2)N(C)C(=O)[C@H](Cc2ccccc2)NC(=O)[C@H](C(C)C)N(C)C(=O)[C@@H]([C@@H](C)CC)OC(=O)[C@H](C(C)(C)O)N(C)C(=O)[C@H](CC(C)C)NC(=O)[C@H](C(C)C)N(C)C1=O [Compound 21] (cyclo(F[X24]PI[NMeV]L[NMeVal(β-OH)][Hmp(2R,3S)][NMeV]))
> 64 µg/mL

Give the value of minimal effective concentration reported for the following: CC[C@H](C)[C@@H]1NC(=O)[C@@H]2CCCN2C(=O)[C@H](Cc2cccc(-c3cccc(F)c3)c2)N(C)C(=O)[C@H](Cc2ccccc2)NC(=O)[C@H](C(C)C)N(C)C(=O)[C@@H]([C@@H](C)CC)OC(=O)[C@H](C(C)(C)O)N(C)C(=O)[C@H](CC(C)C)NC(=O)[C@H](C(C)C)N(C)C1=O [Compound 7] (cyclo(F[X32]PI[NMeV]L[NMeVal(β-OH)][Hmp(2R,3S)][NMeV]))
64 µg/mL

Give the value of minimal effective concentration reported for the following: CC[C@H](C)[C@@H]1NC(=O)[C@@H]2CCCN2C(=O)[C@H](Cc2cccc(-c3ccc4ccncc4c3)c2)N(C)C(=O)[C@H](Cc2ccccc2)NC(=O)[C@H](C(C)C)N(C)C(=O)[C@@H]([C@@H](C)CC)OC(=O)[C@H](C(C)(C)O)N(C)C(=O)[C@H](CC(C)C)NC(=O)[C@H](C(C)C)N(C)C1=O [Compound 17] (cyclo(F[X18]PI[NMeV]L[NMeVal(β-OH)][Hmp(2R,3S)][NMeV]))
> 64 µg/mL

Give the value of minimal effective concentration reported for the following: CC[C@H](C)[C@@H]1NC(=O)[C@@H]2CCCN2C(=O)[C@H](Cc2cccc(-c3ccc(Cl)c(Cl)c3)c2)N(C)C(=O)[C@H](Cc2ccccc2)NC(=O)[C@H](C(C)C)N(C)C(=O)[C@@H]([C@@H](C)CC)OC(=O)[C@H](C(C)(C)O)N(C)C(=O)[C@H](CC(C)C)NC(=O)[C@H](C(C)C)N(C)C1=O [Compound 2] (cyclo(F[X30]PI[NMeV]L[NMeVal(β-OH)][Hmp(2R,3S)][NMeV]))
8 µg/mL

Give the value of minimal effective concentration reported for the following: CC[C@H](C)[C@@H]1NC(=O)[C@@H]2CCCN2C(=O)[C@H](Cc2cccc(-c3cnn(C4CCCC4)c3)c2)N(C)C(=O)[C@H](Cc2ccccc2)NC(=O)[C@H](C(C)C)N(C)C(=O)[C@@H]([C@@H](C)CC)OC(=O)[C@H](C(C)(C)O)N(C)C(=O)[C@H](CC(C)C)NC(=O)[C@H](C(C)C)N(C)C1=O [Compound 12] (cyclo(F[X20]PI[NMeV]L[NMeVal(β-OH)][Hmp(2R,3S)][NMeV]))
> 64 µg/mL

###

Give measured MIC for each item. Keep answers brief.
Tested on: A. flavus MMX 5948
procedure-summary: MIC/MEC assay (CLSI microdilution)
Type: cell-based
experimental-parameters: Aspergillus flavus, MMX5948, 48 h, RPMI plus 0.002% Tween-80, read-out: MIC
Numbered stars: 1 amine (or outer) side, 2 acyl side, 3 side chain; on linkers, the order of the positions; unused ones are H or OH. Square brackets hold non-standard residues; d marks the D form. Peptide text beside a SMILES is read from it. ξ: configuration not given here. X1 = CC(C)N1CCN(c2ccc(-c3cccc(C[C@@H](C(=O)[*:2])N(C)[*:1])c3)cc2)CC1; X7 = CC(C)N1CCN(c2ccc(-c3cccc(C[C@H](N[*:1])C(=O)[*:2])c3)cc2)CC1; X14 = CN([C@@H](Cc1cccc(-c2ccc3ncccc3c2)c1)C(=O)[*:2])[*:1]; Hmp(2R,3S) = CC[C@H](C)[C@@H](O)C(=O)O; NMeVal(β-OH) = CN[C@H](C(=O)O)C(C)(C)O; X6 = CCC(C)[C@@H](O[*:1])C(=O)[*:2]; Ile(3ξ) = CCC(C)[C@H](N)C(=O)O; NMeV = CN[C@H](C(=O)O)C(C)C
Number in µg/mL, nothing else.

Give the value of MIC reported for the following: CC[C@H](C)[C@@H]1NC(=O)[C@@H]2CCCN2C(=O)[C@H](Cc2cccc(-c3ccc(N4CCN(C(C)C)CC4)cc3)c2)N(C)C(=O)[C@H](Cc2cccc(-c3ccc(N4CCN(C(C)C)CC4)cc3)c2)NC(=O)[C@H](C(C)C)N(C)C(=O)[C@@H]([C@@H](C)CC)OC(=O)[C@H](C(C)(C)O)N(C)C(=O)[C@H](CC(C)C)NC(=O)[C@H](C(C)C)N(C)C1=O [Compound 31] (cyclo(I[NMeV]L[NMeVal(β-OH)][Hmp(2R,3S)][NMeV][X7][X1]P))
0.5

Give the value of MIC reported for the following: CCC(C)[C@@H]1NC(=O)[C@@H]2CCCN2C(=O)[C@H](Cc2cccc(-c3ccc4ncccc4c3)c2)N(C)C(=O)[C@H](Cc2ccccc2)NC(=O)[C@H](C(C)C)N(C)C(=O)[C@@H](C(C)CC)OC(=O)[C@H](C(C)(C)O)N(C)C(=O)[C@H](CC(C)C)NC(=O)[C@H](C(C)C)N(C)C1=O (stereo partly drawn) [Compound 18] (cyclo(F[X14]P[Ile(3ξ)][NMeV]L[NMeVal(β-OH)][X6][NMeV]))
0.5
